meta.source: PubChem BioAssay (NCI)

# PROCEDURE_DETAILS: NCI Yeast Anticancer Drug Screen. Data for the rad52 strain (AID 147);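 further: 0% = growth of vehicle-treated control cultures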
# TEST_SETTINGS: S. cerevisiae rad52 mutant growth inhibition; at 1.2 µM; active compounds read high
This is part of a sample that, as a whole, favours compounds with a hit. Of some 79,000 tested, about 15% had one in any assay.

COMPOUND	MEASUREMENT_UNITS	growth inhibition
CC(=O)OCC1OC(O[C@H]2C=C[C@@H](C(=O)OCc3ccccc3)n3c(=O)n(-c4ccccc4)c(=O)n32)C(OC(C)=O)C(OC(C)=O)C1OC(C)=O (stereo partly drawn)	%	22
O=C1NC(c2c(Cl)cccc2Cl)Nc2ccccc21 (stereo not drawn)	%	9
Nc1nc2c(c(=O)[nH]1)NC(CCNc1ccc(C(=O)O)cc1)CN2 (stereo not drawn)	%	-2
